List of EC50 values.
- System: A549
- Method Description: Cytotoxicity against human A549 cells by tetrazolium salt-based colorimetric assay
- Type: functional
- Condition Context: read-out: ED50 (the source's name)

# example entries with known answers
Test Smiles	EC50
O=C1OC[C@H]2OC(=O)c3cc(O)c(O)c(O)c3-c3c(O)c(O)c(O)c4c3C(=O)O[C@H]([C@H]3OC(=O)C5C4=C(O)C(=O)C54Oc5cc(O)c6c(c5[C@H]34)O[C@H](c3ccc(O)c(O)c3)[C@@H](O)C6)[C@@H]2OC(=O)c2cc(O)c(O)c(O)c2-c2c1cc(O)c(O)c2O	> 10 µg/mL
O=C(O)C1=C[C@@H](O)[C@@H](O)[C@H](OC(=O)c2cc(O)c(O)c(OC(=O)c3cc(O)c(O)c(O)c3)c2)C1	> 10 µg/mL

Continue with the next compound.
Query: Lookup: EC50 / A549 / O=C1OC[C@H]2OC(=O)c3cc(O)c(O)c(O)c3-c3c(O)c(O)c(O)c4c3C(=O)O[C@H]([C@H]3OC(=O)c5c-4c(O)c(O)c(O)c5[C@H]3O)[C@@H]2OC(=O)c2cc(O)c(O)c(O)c2-c2c1cc(O)c(O)c2O
Result: > 10 µg/mL
